Biological target: T1, GAL4 activation domain fusion (ACT) to HAB1 (UniProt Q9CAJ0 23-511, limits assumed)
T1 construct: pACT-HAB1 fusion in yeast reporter strains; also called pACT-HAB1
T1 sequence (looked up): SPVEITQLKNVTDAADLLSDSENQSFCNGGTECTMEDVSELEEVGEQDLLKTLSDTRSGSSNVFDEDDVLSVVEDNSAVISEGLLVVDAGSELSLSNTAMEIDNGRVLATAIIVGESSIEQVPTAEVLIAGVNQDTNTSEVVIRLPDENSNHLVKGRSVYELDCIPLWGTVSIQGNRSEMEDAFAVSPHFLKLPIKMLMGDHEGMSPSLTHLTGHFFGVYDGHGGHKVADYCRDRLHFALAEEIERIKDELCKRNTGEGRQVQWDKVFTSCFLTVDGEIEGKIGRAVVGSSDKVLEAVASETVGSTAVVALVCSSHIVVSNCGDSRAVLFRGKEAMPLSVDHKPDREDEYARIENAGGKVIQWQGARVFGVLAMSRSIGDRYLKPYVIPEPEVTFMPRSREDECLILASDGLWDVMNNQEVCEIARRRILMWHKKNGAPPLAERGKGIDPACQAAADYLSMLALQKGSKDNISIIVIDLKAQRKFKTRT
Assay: yeast two-hybrid, X-gal; lowest benzothiadiazole concentration giving signal
Measurement Kind: Threshold (µM)
Report only the number, with the unit µM understood.

The measured Threshold associated with PYR1^K59R,E141Y (receptor, pBD-PYR1 fusion in yeast) MPSELTPEERSELKNSIAEFHTYQLDPGSCSSLHAQRIHAPPELVWSIVRRFDKPQTYRHFIKSCSVEQNFEMRVGCTRDVIVISGLPANTSTERLDILDDERRVTGFSIIGGEHRLTNYKSVTTVHRFEKENRIWTVVLYSYVVDMPEGNSEDDTRMFADTVVKLNLQKLATVAEAMARNSGDGSGSQVT reads 100

The measured Threshold associated with PYR1^K59R,A89C,E141Y (receptor, not shown: small tags and cut ends, pBD-PYR1 fusion in yeast) MPSELTPEERSELKNSIAEFHTYQLDPGSCSSLHAQRIHAPPELVWSIVRRFDKPQTYRHFIKSCSVEQNFEMRVGCTRDVIVISGLPCNTSTERLDILDDERRVTGFSIIGGEHRLTNYKSVTTVHRFEKENRIWTVVLYSYVVDMPEGNSEDDTRMFADTVVKLNLQKLATVAEAMARNSGDGSGSQVT reads 0.2

Please examine the following record next.
The measured Threshold associated with PYR1^K59R,M158I (receptor, not shown: small tags and cut ends, pBD-PYR1 fusion in yeast) MPSELTPEERSELKNSIAEFHTYQLDPGSCSSLHAQRIHAPPELVWSIVRRFDKPQTYRHFIKSCSVEQNFEMRVGCTRDVIVISGLPANTSTERLDILDDERRVTGFSIIGGEHRLTNYKSVTTVHRFEKENRIWTVVLESYVVDMPEGNSEDDTRIFADTVVKLNLQKLATVAEAMARNSGDGSGSQVT reads 100
